Values from patent US7196080B2

Here the recorded melting point is given for each entry.
metric: melting point

INSERT INTO assay_data (compound, observed_value) VALUES
  ('COc1ccc(-c2cccc(C(=O)N3CCN(c4ccc(C(C)=O)cc4)CC3)n2)cc1Cl [Example 113]', '168 to 170 °C'),
  ('COc1ccc(-c2cccc(C(=O)N3CCN(c4ccc(N)cc4)CC3)n2)cc1OC [Example 9]', '164 to 165 °C'),
  ('COc1ccc(-c2cccc(C(=O)N3CCN(c4ccc(C(C)=O)cc4)CC3)n2)cc1OC [Example 32]', '161 to 163 °C'),
  ('COc1ccc(-c2cccc(C(=O)N3CCN(c4ccc(OCCN5CCC(O)CC5)cc4)CC3)n2)cc1OC [Example 95]', '143 to 144 °C'),
  ('COc1ccc(-c2cccc(C(=O)N3CCN(c4ccc(C(C)=O)cc4)CC3)n2)cc1OCC1CC1 (hydrate or solvate) [Example 112]', '142 to 144 °C'),
  ('COc1ccc(N2CCN(C(=O)c3cccc(-c4ccc(OC)c(OC)c4)n3)CC2)cc1 [Example 2]', '169 to 172 °C'),
  ('COc1ccc(-c2cccc(C(=O)N3CCN(c4ccc(N5CCOCC5)cc4)CC3)n2)cc1OC [Example 15]', '129 to 130 °C'),
  ('COc1ccc(-c2cccc(C(=O)N3CCN(c4cccc(Br)n4)CC3)n2)cc1OC [Example 77]', '144 to 145 °C');
